Below are pKi measurements against Stromelysin-1 (Homo sapiens) drawn from the literature.
pKi: −log10 of the molar value.

[
  {
    "compound": "Cc1ccc(CCC[C@H](CC(=O)NO)C(=O)N[C@@H](CC2CCCCC2)C(=O)NCCNS(=O)(=O)N2CCOCC2)cc1",
    "pKi": 8.56
  },
  {
    "compound": "CC(C)C[C@@]1([C@@H](CCNC(=O)c2cccc(F)c2)C(=O)NO)CCN(CCc2ccccc2)C1=O",
    "pKi": 7.28
  },
  {
    "compound": "CNC(=O)[C@H](Cc1ccccc1)NC(=O)[C@H](CC(C)C)[C@](O)(COC1CCCCO1)C(=O)NO (stereo partly shown)",
    "pKi": 7.82
  },
  {
    "compound": "CC(C)(C)[C@H](NC(=O)Cc1c[nH]c2ccccc12)C(=O)Nc1n[nH]c(=S)s1",
    "pKi": 6.39
  }
]

###

pKi: −log10 of the molar value.
Here, compounds appear alongside pKi reported for Stromelysin-1 (Homo sapiens) in the literature.
outcome-measure: pKi

[
  {
    "compound": "O=C(COCc1ccccc1)NC(C(=O)Nc1n[nH]c(=S)s1)c1ccccc1 (stereo not shown)",
    "number": 6.42
  },
  {
    "compound": "CC(C)C[C@@]1(CC(=O)NO)CCN([C@@H](Cc2ccccc2)C(=O)N2C[C@@H](C)N[C@@H](C)C2)C1=O (relative stereo)",
    "number": 5.64
  },
  {
    "compound": "CNC(=O)[C@@H](NC(=O)[C@H](CC(C)C)[C@](O)(CO)C(=O)NO)C(C)(C)C",
    "number": 6.82
  },
  {
    "compound": "CC(C)C[C@H](CC(=O)O)C(=O)N[C@@H](Cc1c[nH]c2ccccc12)C(=O)NCCCN1CCOCC1",
    "number": 4.71
  },
  {
    "compound": "CC(C)CC1(CC(=O)NO)CCN(CCc2ccccc2)C1=O (stereo not shown)",
    "number": 4.57
  }
]

###

// compounds with log10 Ki on Stromelysin-1 (Homo sapiens), multi-source literature
outcome-measure: log10 Ki (log10 of the value in nM)

[
  {
    "compound": "CNC(=O)[C@H](Cc1ccccc1)NC(=O)[C@H](CC(C)C)C1(C(=O)NO)CC1",
    "assayed-system": "Stromelysin-1 (Homo sapiens)",
    "log10 Ki": 2.94
  },
  {
    "compound": "CC(C)C[C@@]1(CC(=O)NO)CCN([C@@H](Cc2ccccc2)C(=O)NCCc2ccccc2)C1=O",
    "assayed-system": "Stromelysin-1 (Homo sapiens)",
    "log10 Ki": 2.71
  },
  {
    "compound": "CCCOc1ccc2c(c1)C(=O)N(CCC(C(=O)NO)C1(CC(C)C)CCN(CCc3ccccc3)C1=O)C2=O (stereo not shown)",
    "assayed-system": "Stromelysin-1 (Homo sapiens)",
    "log10 Ki": 2.57
  },
  {
    "compound": "O=C(CCc1ccccc1)NC(C(=O)Nc1n[nH]c(=S)s1)c1ccccc1 (stereo not shown)",
    "assayed-system": "Stromelysin-1 (Homo sapiens)",
    "log10 Ki": 2.81
  },
  {
    "compound": "CNC(=O)C(C(=O)Nc1n[nH]c(=S)s1)C(C)(C)C (stereo not shown)",
    "assayed-system": "Stromelysin-1 (Homo sapiens)",
    "log10 Ki": 3.63
  },
  {
    "compound": "CC(C)C[C@@]1([C@@H](CCN2C(=O)c3ccccc3S2(=O)=O)C(=O)NO)CCN(CCc2ccccc2)C1=O (relative stereo)",
    "assayed-system": "Stromelysin-1 (Homo sapiens)",
    "log10 Ki": 2.33
  },
  {
    "compound": "CC(C)CC1(C(CCN2C(=O)c3cc(F)c(F)cc3C2=O)C(=O)NO)CCN(CCc2ccccc2)C1=O (stereo not shown)",
    "assayed-system": "Stromelysin-1 (Homo sapiens)",
    "log10 Ki": 2.03
  },
  {
    "compound": "O=C(CC(NC(=O)CCc1ccccc1)c1ccccc1)Nc1n[nH]c(=S)s1 (stereo not shown)",
    "assayed-system": "Stromelysin-1 (Homo sapiens)",
    "log10 Ki": 2.84
  },
  {
    "compound": "CC(C)(C)OC(=O)NC(C(=O)Nc1n[nH]c(=S)s1)C(C)(C)CCc1ccccc1 (stereo not shown)",
    "assayed-system": "Stromelysin-1 (Homo sapiens)",
    "log10 Ki": 3.79
  },
  {
    "compound": "O=C(NCC[C@@H](C(=O)NO)[C@]1(CCCO)CCN(CCc2ccccc2)C1=O)c1cccc(F)c1",
    "assayed-system": "Stromelysin-1 (Homo sapiens)",
    "log10 Ki": 0.94
  },
  {
    "compound": "O=C(NO)C(CS(=O)(=O)c1ccc(Cl)cc1)CS(=O)(=O)c1ccc(Cl)cc1",
    "assayed-system": "Stromelysin-1 (Homo sapiens)",
    "log10 Ki": 1.86
  },
  {
    "compound": "CCCCCCCCS(=O)(=O)CC(CS(=O)(=O)CCCCCCCC)C(=O)NO",
    "assayed-system": "Stromelysin-1 (Homo sapiens)",
    "log10 Ki": 2.64
  },
  {
    "compound": "Cc1ccc(CCC[C@H](CC(=O)O)C(=O)N[C@@H](CC2CCCCC2)C(=O)NCCNS(=O)(=O)N2CCOCC2)cc1",
    "assayed-system": "Stromelysin-1 (Homo sapiens)",
    "log10 Ki": 2.90
  },
  {
    "compound": "CNC(=O)[C@@H](NC(=O)[C@H](CCCc1ccc(C)cc1)CC(=O)NO)C(C)(C)C",
    "assayed-system": "Stromelysin-1 (Homo sapiens)",
    "log10 Ki": 1.00
  },
  {
    "compound": "O=C(NC(C(=O)Nc1n[nH]c(=S)s1)c1ccccc1)OCc1ccccc1 (stereo not shown)",
    "assayed-system": "Stromelysin-1 (Homo sapiens)",
    "log10 Ki": 3.08
  },
  {
    "compound": "CC(C)C[C@@]1(CC(=O)NO)CCN([C@@H](CCc2ccccc2)C(=O)NCc2ccccc2)C1=O",
    "assayed-system": "Stromelysin-1 (Homo sapiens)",
    "log10 Ki": 2.59
  },
  {
    "compound": "CCOC(=O)N(CC[C@@H](C(=O)NO)[C@]1(CC(C)C)CCN(CCc2ccccc2)C1=O)C(=O)OCc1ccccc1 (relative stereo)",
    "assayed-system": "Stromelysin-1 (Homo sapiens)",
    "log10 Ki": 2.29
  },
  {
    "compound": "CCCCc1ccc(S(=O)(=O)CC(O)(CS(=O)(=O)c2ccc(OC)cc2)C(=O)NO)cc1 (stereo not shown)",
    "assayed-system": "Stromelysin-1 (Homo sapiens)",
    "log10 Ki": 1.66
  },
  {
    "compound": "CC(C)C[C@@]1(CC(=O)NO)CCN([C@@H](Cc2ccccc2)C(=O)Nc2ccc(F)cc2)C1=O",
    "assayed-system": "Stromelysin-1 (Homo sapiens)",
    "log10 Ki": 1.41
  },
  {
    "compound": "CC(=O)NC(C(=O)Nc1n[nH]c(=S)s1)c1ccccc1 (stereo not shown)",
    "assayed-system": "Stromelysin-1 (Homo sapiens)",
    "log10 Ki": 3.26
  },
  {
    "compound": "CC(C)C[C@@]1(CC(=O)NO)CCN([C@@H](Cc2ccccc2)C(=O)NCc2ccccn2)C1=O",
    "assayed-system": "Stromelysin-1 (Homo sapiens)",
    "log10 Ki": 3.30
  },
  {
    "compound": "CC(C)(C)OC(=O)N1CCC[C@H]1C(=O)N[C@H](C(=O)Nc1n[nH]c(=S)s1)C(C)(C)C",
    "assayed-system": "Stromelysin-1 (Homo sapiens)",
    "log10 Ki": 3.17
  },
  {
    "compound": "CC(C)[C@H](NC(=O)OCc1ccccc1)C(=O)Nc1n[nH]c(=S)s1",
    "assayed-system": "Stromelysin-1 (Homo sapiens)",
    "log10 Ki": 3.06
  },
  {
    "compound": "COc1ccc(S(=O)(=O)NCC[C@@H](C(=O)NO)[C@]2(CC(C)C)CCN(CCc3ccccc3)C2=O)cc1 (relative stereo)",
    "assayed-system": "Stromelysin-1 (Homo sapiens)",
    "log10 Ki": 2.58
  },
  {
    "compound": "CC(C)C[C@@]1([C@@H](CN2C(=O)c3ccccc3C2=O)C(=O)NO)CCN(CCc2ccccc2)C1=O (relative stereo)",
    "assayed-system": "Stromelysin-1 (Homo sapiens)",
    "log10 Ki": 1.97
  }
]
